# Test system: NCI-H929 complex spheroids, viability % test/control
# experimental_protocol: Anticancer human tumor NCI-H929 cell line growth inhibition [RAS];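 note: compound exposure lasted seven days before viability was read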
# measurement_conditions: curve of first compound; second compound 3.16 µM
pIC50: −log10 of the molar value.
# pIC50 per record follows

Illustrative cases are given below, each with its answer.
compound	test_result
CC(C)NCC(C(=O)N1CCN(c2ncnc3c2C(C)CC3O)CC1)c1ccc(Cl)cc1 (stereo not drawn) + C#Cc1c(F)ccc2cc(O)cc(-c3ncc4c(N5CC6CCC(C5)N6)nc(OCC56CCCN5CC(F)C6)nc4c3F)c12	5.55
C=CC(=O)N1CCN(c2nc(OCC3CCCN3C)nc3c(F)c(-c4nc(N)cc(C)c4C(F)(F)F)c(Cl)cc23)C(C)C1 (stereo not drawn) + C#Cc1c(F)ccc2cc(O)cc(-c3ncc4c(N5CC6CCC(C5)N6)nc(OCC56CCCN5CC(F)C6)nc4c3F)c12	< 6.00

Attention now shifts to the item below.
Task: # return recorded pIC50 for entry NC1c2ccccc2OC12CCN(c1cnc3c(N4CCCc5ncccc54)n[nH]c3n1)CC2 (stereo not drawn) + C#Cc1c(F)ccc2cc(O)cc(-c3ncc4c(N5CC6CCC(C5)N6)nc(OCC56CCCN5CC(F)C6)nc4c3F)c12
Result: < 5.00
